MEASURED TARGET: T1, PUF4 RNA-binding domain (Saccharomyces cerevisiae, UniProt P25339 537-888)
T1 sequence: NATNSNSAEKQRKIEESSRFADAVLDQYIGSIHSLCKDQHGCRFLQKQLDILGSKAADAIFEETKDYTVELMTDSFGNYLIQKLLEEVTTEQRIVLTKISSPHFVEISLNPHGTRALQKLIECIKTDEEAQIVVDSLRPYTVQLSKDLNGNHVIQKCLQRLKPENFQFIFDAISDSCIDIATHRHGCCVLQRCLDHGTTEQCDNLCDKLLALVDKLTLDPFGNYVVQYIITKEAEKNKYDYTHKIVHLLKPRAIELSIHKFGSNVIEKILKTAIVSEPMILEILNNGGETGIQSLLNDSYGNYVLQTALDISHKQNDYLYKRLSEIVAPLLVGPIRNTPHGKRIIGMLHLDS
PROCEDURE SUMMARY: Mg; RNA-MaP; 20 mM Na-HEPES pH 7.4, 30 mM KOAc, 0.75 mM MgCl2, 0.1% Tween-20, 5% glycerol, 0.1 mg/mL BSA, 2 mM DTT; 25 C; 0.0125-409.6 nM protein
TEST CONTEXT: tags: N-His6-TEV cleaved; C-SNAP kept, Cy3B-labelled; label: tethered on chip by stalled RNA polymerase
pKd: −log10 of the molar value.
METRIC NAME: pKd

[
  {
    "BINDER": "UCUCUUUGUACGCCCCUCUCUU (ssRNA) [Ic_S1_P5E.1_K5.1_C5.1_H5.1_A5.1_[T5C]_[T6G]_[A7C]_F5.1_[T8C]_[T9C]_[A10C]_T5.1]",
    "ASSAY RESULT": 6.18
  },
  {
    "BINDER": "Ib_S2_P3E.1_K3.1_C3.1_H3.1_[A4T]_A3.1_[T5A]_F3.1_T3.1 (ssRNA) RNA: UUUGAUUAAUAUGAUAUCGUUCUUUCUUGUUAAUAUUCUUUCUCGAUAUCAUAUUAAUCUUU",
    "ASSAY RESULT": 6.17
  },
  {
    "BINDER": "Id_ii_S2_P4E.2_K4.1_C4.2_[C-2T]_H4.1_A4.1_F4.1_T4.2_[G10T] (ssRNA) RNA: UUUGAUUAAUAUGAUAUCGUUCUUUCUUUUGUAUAUUAUUUUCUUUCUCGAUAUCAUAUUAAUCUUU",
    "ASSAY RESULT": 9.58
  }
]

Data origin, for the record: paper PMC9352680
